- ASSAY_EXPLANATION: Confirmatory qHTS for small molecule stabilizers of the endoplasmic reticulum resident proteome: Secreted ER Calcium Modulated Protein (SERCaMP) assay (AID 1508628); further: nearly all actives have a fitted effect of over 40% in size
- CONDITION_LABEL: SERCaMP secreted luciferase ER calcium/proteostasis reporter; series mostly up to 76.3 µM
Inconclusive results are not listed. The source made the active and inactive calls. The call rests on the fitted dose curve; in most records, active means well fitted inhibition curve with a large enough effect; inconclusive means small, poorly fitted or top-dose-only effect; inactive means no such curve, though single readings can be large or run the other way.
Valid outcomes are listed here; reply with one: active, inactive

These recorded examples may help you get a feel for the data.
COMPOUND | CAT
CN1CC[C@@]2(C)c3cc(OC(=O)Nc4ccccc4)ccc3N(C)[C@@H]12 | active
NCC(O)c1cc(O)c(O)cc1F (stereo not given) | inactive
Oc1ccc2c3c1O[C@H]1c4[nH]c5ccccc5c4C[C@@]4(O)C(C2)N(CC2CC2)CCC314 (stereo not given in full) | active

Ask: State the result this test recorded for CN1C2CCC1CC(OC(c1ccccc1)c1ccccc1N)C2 (stereo not given) .
Reply: active

Ask: State the result this test recorded for CC(C)[C@@]1(NC(=O)[C@@H]2C[C@@H]3c4cccc5[nH]cc(c45)C[C@H]3N(C)C2)O[C@@]2(O)[C@@H]3CCCN3C(=O)[C@H](Cc3ccccc3)N2C1=O .
Reply: active

====

- TARGET_UNDER_TEST: Cytochrome P450 2C9 (Homo sapiens) (UniProt P11712)
- Sequence (P11712 whole entry, looked up): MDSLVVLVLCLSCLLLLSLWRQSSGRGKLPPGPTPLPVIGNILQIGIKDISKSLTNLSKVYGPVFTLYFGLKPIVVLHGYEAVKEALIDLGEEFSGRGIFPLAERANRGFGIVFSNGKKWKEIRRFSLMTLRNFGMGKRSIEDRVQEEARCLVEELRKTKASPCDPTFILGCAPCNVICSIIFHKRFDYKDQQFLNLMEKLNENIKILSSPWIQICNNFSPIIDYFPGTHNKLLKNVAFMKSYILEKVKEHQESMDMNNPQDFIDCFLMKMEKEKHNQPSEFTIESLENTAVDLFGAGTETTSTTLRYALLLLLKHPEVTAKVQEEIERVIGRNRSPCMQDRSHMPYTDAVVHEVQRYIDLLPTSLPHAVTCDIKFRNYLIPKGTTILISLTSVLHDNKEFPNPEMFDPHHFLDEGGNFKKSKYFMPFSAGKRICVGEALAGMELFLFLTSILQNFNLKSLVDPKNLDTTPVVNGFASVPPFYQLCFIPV
- ASSAY_EXPLANATION: Cytochrome P450 family 2 subfamily C member 9 (CYP2C9) small molecule antagonists: luciferase biochemical (cell-free) qHTS assay (AID 1645842); further: nearly all actives have a fitted effect of over 55% in size
- CONDITION_LABEL: P450-Glo CYP2C9 enzyme assay, luciferin luminescence; series mostly up to 57.4 µM
Results filed as inconclusive are left out. Active and inactive are the calls of the source. Calls come from the whole dose curve; as a rule, active = well fitted inhibition curve with a large enough effect in the repeat runs; inconclusive = weak or mixed curves; inactive = no such curve, though single readings can be large or run the other way.
Valid outcomes are listed here; reply with one: 1 (active), 0 (inactive)

These recorded examples may help you get a feel for the data.
MOLECULE | CAT
Cc1c(Cl)cccc1S(=O)(=O)Nc1nc(CC(=O)N2CCN(C)CC2)cs1 | 1
NCC(O)c1cccc(O)c1 (configuration not stated) | 0

Ask: State the result this test recorded for OCCCCC#Cc1cncc(OC[C@@H]2CCN2)c1 .
Reply: 0

Ask: State the result this test recorded for Cc1cccc(NC(=O)N[C@@H]2N=C(c3ccccc3)c3ccccc3N(C)C2=O)c1 .
Reply: 1

Ask: State the result this test recorded for CC(N)Cc1c[nH]c2ccccc12 (configuration not stated) .
Reply: 0

Ask: State the result this test recorded for Clc1ccc(OCC2=NCCN2)cc1Cl .
Reply: 0

Ask: State the result this test recorded for CC(Cc1ccccc1)NC=O (configuration not stated) .
Reply: 0

====

activation values for the compounds below.
- ASSAY_EXPLANATION: qHTS assay for environmental chemicals that activate the Aryl hydrocarbon Receptor (AhR) signaling pathway (AID 651777); further: % of control where 0% means no effect; nearly all actives have a fitted effect of over 15% in size
- CONDITION_LABEL: 1A2-DRE human hepatoma cells, luciferase, 24 h; stronger effect = higher value
Inconclusive results are not listed. Active and inactive are the calls of the source. The call rests on the fitted dose curve; in most records, active means well fitted activation curve with a large enough effect; inconclusive means small, poorly fitted or top-dose-only effect; inactive means flat fitted curve, though single readings scatter.

A selection of reference data follows.
COMPOUND | activation
O=Cc1ccco1 | -0.549% (inactive)
CC(C)CCON=O | -0.695% (inactive)
O=C1CCO1 | 1.44% (inactive)

Ask: Query: activation; subject: COC1=CC(=O)O[C@@H](/C=C/c2ccccc2)C1
Reply: 1.75% (inactive)

====

- ASSAY_EXPLANATION: Validation screen for inhibitors of Lassa infection (AID 463096); further: on the % scale 0 is the no-effect control and ±100 the full control effect
- CONDITION_LABEL: Lassa virus infection, cell-based; series mostly up to 46.1 µM
Results filed as inconclusive are left out. Active and inactive are the calls of the source. Calls follow the shape of the full dose curve.
Valid outcomes are listed here; reply with one: yes (1) = active, no (0) = inactive

Ask: State the result this test recorded for NC(=O)c1ccc(OCC(O)CN2CC=C(c3ccc(F)cc3)CC2)cc1 (stereo unspecified) .
Reply: no (0)
